System: acute monocytic leukemia cells (MV4-11)
Assay: MTT tumor cell growth inhibition, MV4-11
Type: cell-based
Conditions: Homo sapiens; MV4-11, MTT, 72 hours, relative IC50

{"MOLECULE": "C/C=C1\\NC(=O)[C@H]2C[S+]([O-])SCC/C=C/[C@H](CC(=O)N[C@H](C(C)C)C(=O)N2)OC(=O)[C@H](C(C)C)NC1=O (stereo partly drawn)", "MEASURED_TARGET": "acute monocytic leukemia cells (MV4-11)", "UNIT_TAG": "nM", "IC50": 33}
{"MOLECULE": "C/C=C1\\NC(=O)[C@H]2CSSCC/C=C/[C@H](CC(=O)N[C@H](C(C)C)C(=O)N2)OC(=O)[C@H](C(C)C)NC1=O [Romidepsin, reference compound]", "MEASURED_TARGET": "acute monocytic leukemia cells (MV4-11)", "UNIT_TAG": "nM", "IC50": 6.8}
{"MOLECULE": "C/C=C1\\NC(=O)[C@H]2CS[S+]([O-])CC/C=C/[C@H](CC(=O)N[C@H](C(C)C)C(=O)N2)OC(=O)[C@H](C(C)C)NC1=O (stereo partly drawn)", "MEASURED_TARGET": "acute monocytic leukemia cells (MV4-11)", "UNIT_TAG": "nM", "IC50": 4.8}
